We begin with a simple list: items and their reported kon.
Target: T1, His-tagged human IL-1 Rrp2/IL-1 R6 protein (human, UniProt Q9HB29 20-335)
T1 construct: Bought reagent; also called Human IL-1 Rrp2/IL-1 R6 Protein, His Tag; ACRO Biosystems IL2-H52H6; not shown: His tag
T1 sequence (looked up): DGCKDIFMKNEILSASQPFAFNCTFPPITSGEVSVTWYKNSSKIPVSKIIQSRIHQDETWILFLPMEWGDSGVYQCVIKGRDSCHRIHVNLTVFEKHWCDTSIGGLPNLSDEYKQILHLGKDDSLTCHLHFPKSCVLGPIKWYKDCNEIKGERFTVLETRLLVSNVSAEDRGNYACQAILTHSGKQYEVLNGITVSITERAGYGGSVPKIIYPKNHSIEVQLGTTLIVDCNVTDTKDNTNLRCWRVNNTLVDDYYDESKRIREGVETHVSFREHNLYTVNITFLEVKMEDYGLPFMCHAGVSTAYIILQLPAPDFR
Experiment: SPR (Biacore 8K), His-tagged antigen captured by anti-His on CM5, antibody as analyte, 1:1 model
The response must be a number in M⁻¹ s⁻¹ with no trailing unit.

Example entries and their recorded answers appear below.
humanized anti-IL-36R antibody 900534 (antibody, V domains shown, IgG1 (human IgG1 L234A/L235A, human kappa)) VH: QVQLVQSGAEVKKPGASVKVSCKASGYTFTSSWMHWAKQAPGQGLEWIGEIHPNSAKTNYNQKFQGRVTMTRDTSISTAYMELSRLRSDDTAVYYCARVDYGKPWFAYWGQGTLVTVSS VL: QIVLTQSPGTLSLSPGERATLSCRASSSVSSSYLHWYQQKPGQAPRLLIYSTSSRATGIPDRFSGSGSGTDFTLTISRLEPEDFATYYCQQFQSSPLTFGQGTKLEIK
881000
anti-IL-36R chimeric antibody 900497 (antibody, V domains shown, Human-mouse chimera: human IgG1 heavy-chain constant region with L234A and L235A (Eu numbering), human kappa constant region) VH: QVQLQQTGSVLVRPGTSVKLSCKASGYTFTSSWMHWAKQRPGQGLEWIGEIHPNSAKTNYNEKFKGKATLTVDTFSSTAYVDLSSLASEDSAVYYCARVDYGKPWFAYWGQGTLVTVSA VL: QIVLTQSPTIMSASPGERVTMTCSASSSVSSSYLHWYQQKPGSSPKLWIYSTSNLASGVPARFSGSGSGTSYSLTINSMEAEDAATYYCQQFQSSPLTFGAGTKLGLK
660000
humanized anti-IL-36R antibody 900513 (antibody, V domains shown, IgG1; built from the chimeric expression plasmids (human IgG1 L234A/L235A, human kappa)) VH: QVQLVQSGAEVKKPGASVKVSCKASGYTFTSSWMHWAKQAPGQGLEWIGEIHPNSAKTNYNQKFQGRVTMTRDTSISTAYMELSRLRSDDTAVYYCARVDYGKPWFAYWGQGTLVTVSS VL: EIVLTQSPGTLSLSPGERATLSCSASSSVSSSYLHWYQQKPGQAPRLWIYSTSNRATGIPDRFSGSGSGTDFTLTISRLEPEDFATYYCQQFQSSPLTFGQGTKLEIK
904000

Sure, the documented kon for humanized anti-IL-36R antibody 900527 (antibody, V domains shown, IgG1 (human IgG1 L234A/L235A, human kappa); also called HB0034) VH: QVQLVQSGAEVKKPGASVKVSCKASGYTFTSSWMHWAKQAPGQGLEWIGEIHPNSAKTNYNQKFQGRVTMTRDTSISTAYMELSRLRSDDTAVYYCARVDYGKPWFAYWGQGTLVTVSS VL: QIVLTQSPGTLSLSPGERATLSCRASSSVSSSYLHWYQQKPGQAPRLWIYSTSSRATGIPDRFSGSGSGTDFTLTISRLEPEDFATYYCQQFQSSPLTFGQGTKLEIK is 967000
